These data points were gathered from patent US20220056019A1.

pEC50: recorded values
- TARGET UNDER TEST: hFXR (Homo sapiens, UniProt Q96RI1)
- Sequence (Q96RI1 whole entry): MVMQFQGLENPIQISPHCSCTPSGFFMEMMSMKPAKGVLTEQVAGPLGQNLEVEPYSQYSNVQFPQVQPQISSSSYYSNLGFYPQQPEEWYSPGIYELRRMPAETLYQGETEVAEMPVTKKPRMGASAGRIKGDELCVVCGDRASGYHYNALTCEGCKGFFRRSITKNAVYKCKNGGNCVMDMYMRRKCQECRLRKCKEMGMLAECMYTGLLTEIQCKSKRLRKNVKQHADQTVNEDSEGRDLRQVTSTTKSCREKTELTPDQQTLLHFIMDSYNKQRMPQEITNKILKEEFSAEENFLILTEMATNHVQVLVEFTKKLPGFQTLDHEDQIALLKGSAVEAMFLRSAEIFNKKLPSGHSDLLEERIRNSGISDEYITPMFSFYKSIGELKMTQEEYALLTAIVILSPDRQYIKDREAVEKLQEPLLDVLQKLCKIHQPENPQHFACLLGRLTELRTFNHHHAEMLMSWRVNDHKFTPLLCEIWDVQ
- Sequence (P19793 whole entry partner): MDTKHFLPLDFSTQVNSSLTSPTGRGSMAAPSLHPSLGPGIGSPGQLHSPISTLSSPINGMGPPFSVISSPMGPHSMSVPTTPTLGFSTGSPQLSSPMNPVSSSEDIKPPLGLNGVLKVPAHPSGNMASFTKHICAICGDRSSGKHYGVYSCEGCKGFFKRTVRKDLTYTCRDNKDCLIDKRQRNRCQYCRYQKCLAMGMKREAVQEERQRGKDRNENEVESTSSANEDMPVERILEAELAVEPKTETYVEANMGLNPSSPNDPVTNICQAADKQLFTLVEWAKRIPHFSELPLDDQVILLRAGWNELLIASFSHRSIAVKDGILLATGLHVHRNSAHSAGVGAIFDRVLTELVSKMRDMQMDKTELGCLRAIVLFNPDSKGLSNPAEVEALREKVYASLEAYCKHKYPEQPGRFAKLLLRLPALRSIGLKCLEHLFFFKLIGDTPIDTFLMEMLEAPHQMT
- EXPERIMENT DESCRIPTION: In Vitro FXR Assay (TK): TK-ECRE-luc reporter in transfected CV-1 cells
- ASSAY CONDITIONS: 18 hrs incubation, luminescence
pEC50: −log10 of the molar value.
OUTCOME MEASURE: pEC50

[[record]]
compound = "CCc1nc(-c2ccnc(N(C[C@H]3CC[C@H](c4ccc(OC)c(C)c4)CC3)C(=O)[C@H]3CC[C@H](OC(=O)N4CCN(C)CC4)CC3)c2)co1 [Compound 2.48]"
outcome_measure = "pEC50"
experimental_value = "6.00 to 7.30"

[[record]]
compound = "COc1ccc(C23CCC(CN(c4cc(-c5cnn(C(C)C)c5)ccn4)C(=O)[C@H]4CC[C@H](OC(=O)NC(C)C)CC4)(CC2)CC3)cc1C [Compound 4.04]"
outcome_measure = "pEC50"
experimental_value = "≥ 7.30"

[[record]]
compound = "COc1ccc(C23CCC(CN(c4cc(-c5cnc(C(C)C)s5)ccn4)C(=O)[C@H]4CC[C@H](OC(=O)NC5COC5)CC4)(CC2)CC3)cc1C [Compound 4.35]"
outcome_measure = "pEC50"
experimental_value = "≥ 7.30"

[[record]]
compound = "COc1ccc([C@H]2CC[C@H](CN(c3cccc(-c4cnn(C(C)C)c4)c3)C(=O)[C@H]3CC[C@H](OC(=O)NCC(F)(F)CO)CC3)CC2)cc1C [Compound 5.02]"
outcome_measure = "pEC50"
experimental_value = "≥ 7.30"

[[record]]
compound = "O=C(O[C@H]1CC[C@H](C(=O)N(C[C@H]2CC[C@H](c3cc4ccccn4c3)CC2)c2cccc(-c3cnc(C4CC4)s3)c2)CC1)N1CC(O)C1 [Compound 5.14]"
outcome_measure = "pEC50"
experimental_value = "≥ 7.30"

[[record]]
compound = "COc1ccc([C@H]2CC[C@H](CN(c3cc(-c4cnn(C(C)C)c4)ccn3)C(=O)[C@H]3CC[C@H](OC(=O)NCCCF)CC3)CC2)cc1C [Compound 2.29]"
outcome_measure = "pEC50"
experimental_value = "≥ 7.30"

[[record]]
compound = "COc1ccc(C23CCC(CN(c4cc(-c5cnn(C6CCS(=O)(=O)CC6)c5)ccn4)C(=O)[C@H]4CC[C@H](OC(=O)N5CC(O)C5)CC4)(CC2)CC3)cc1C [Compound 26.23]"
outcome_measure = "pEC50"
experimental_value = "5.00 to 6.00"

[[record]]
compound = "COc1ccc([C@H]2CC[C@H](CN(c3cccc(-c4cnn(C(C)C)c4)c3)C(=O)[C@H]3CC[C@H](NC(=O)OC4COC4)CC3)CC2)cc1C [Compound 6.05]"
outcome_measure = "pEC50"
experimental_value = "≥ 7.30"

[[record]]
compound = "COc1ccc(C23CCC(CN(c4cc(-c5cnn(C(C)C)c5)ccn4)C(=O)[C@H]4CC[C@H](OC(=O)N5CC(OCCO)C5)CC4)(CC2)CC3)cc1C [Compound 4.10]"
outcome_measure = "pEC50"
experimental_value = "≥ 7.30"

[[record]]
compound = "COc1ccc([C@H]2CC[C@H](CN(c3cc(-c4cnc(C(C)C)s4)ccn3)C(=O)[C@H]3CC[C@H](OC(=O)NC(C)C)CC3)CC2)cc1C [Compound 2.47]"
outcome_measure = "pEC50"
experimental_value = "≥ 7.30"

[[record]]
compound = "COc1ccc([C@H]2CC[C@H](CN(c3cc(-c4cnn(C(C)C)c4)ccn3)C(=O)[C@H]3CC[C@H](OC(=O)NCC(F)(F)CO)CC3)CC2)cc1C [Compound 2.34]"
outcome_measure = "pEC50"
experimental_value = "≥ 7.30"

